The values you see were collected from patent US20240262857A1.

System: CEM cells
Assay: Cellular toxicity assay, CEM cells
Details: read-out: Cytotoxicity CC50 CEM; CEM cells
OBSERVABLE: CC50
Answer with the value and then the unit.

Enquiry: # lookup: CC50 of O=c1nc(NO)ccn1[C@@H]1O[C@H](CO)[C@@H](O)[C@H]1O [NHC, N^4-hydroxycytidine]
Return: 2.6 µM

* * *

Test: Cellular toxicity assay, Vero cells
Settings: African green monkey
OBSERVABLE: CC50 (µM)
Give the number; µM is assumed, so skip it.

Enquiry: # lookup: CC50 of [2H]C1(O)C(O)[C@H](n2ccc(NO)nc2=O)O[C@@H]1CO (stereo partly drawn) [D-NHC]
Return: 41.6
